Each recorded value in this set is attributed to patent US12187709B2.

experimental.system: Human Cbl-b (residues 40-426) (Homo sapiens (Human), UniProt Q13191)
Sequence (Q13191 40-426): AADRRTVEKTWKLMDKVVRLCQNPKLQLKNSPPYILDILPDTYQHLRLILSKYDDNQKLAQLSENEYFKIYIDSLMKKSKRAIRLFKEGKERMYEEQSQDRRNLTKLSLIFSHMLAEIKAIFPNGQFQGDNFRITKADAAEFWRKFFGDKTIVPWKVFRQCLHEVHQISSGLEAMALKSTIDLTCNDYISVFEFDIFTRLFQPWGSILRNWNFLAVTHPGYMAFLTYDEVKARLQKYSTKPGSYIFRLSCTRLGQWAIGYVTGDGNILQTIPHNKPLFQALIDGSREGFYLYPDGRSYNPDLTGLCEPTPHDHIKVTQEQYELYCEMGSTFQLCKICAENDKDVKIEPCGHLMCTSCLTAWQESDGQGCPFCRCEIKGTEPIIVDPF
procedure.text: Cbl-b SPR assay
Assay type: binding
run.conditions: SPR, 20° C.
attribute.measured: Kd

Examples from the recorded data:
Cn1cnnc1[C@@H](c1cccc(N2Cc3c(cc(CNC4(C)CCC4)cc3C(F)(F)F)C2=O)c1)[C@H]1C[C@H](C)C1 (single isomer, unassigned); 6.9 nM
Cn1cnnc1[C@@H](c1cccc(N2Cc3c(Cl)cc(CNC4(C)CCC4)cc3C2=O)c1)[C@H]1C[C@H](F)C1 (single isomer, unassigned); 250 nM
CO[C@H]1C[C@@](c2cc(NCCC#N)cc(N3Cc4c(cc(CNC5(C)CCC5)cc4C(F)(F)F)C3=O)c2)(c2nncn2C)C1; 9.5 nM
CC1(NCc2cc3c(c(C(F)(F)F)c2)CN(c2cccc([C@@H](C4COC4)n4ccnn4)c2)C3=O)CCC1 (single isomer, unassigned); 600 nM
CC(=O)C1CC([C@H](c2cccc(N3Cc4c(cc(CNC5(C)CCC5)cc4C(F)(F)F)C3=O)c2)c2nncn2C)C1 (single isomer, unassigned); 560 nM
Cn1ccnc1[C@@H](c1cccc(N2Cc3c(cc(CNC4(C)CCC4)cc3C(F)(F)F)C2=O)c1)C1COC1 (single isomer, unassigned); 34 nM
CCCN1CC(c2cc3c(c(C(F)(F)F)c2)CN(c2cccc([C@H](c4nncn4C)C4COC4)c2)C3=O)C1; 110 nM
CC(=O)C1CC([C@@H](c2cccc(N3Cc4c(cc(CNC5(C)CCC5)cc4C(F)(F)F)C3=O)c2)c2nncn2C)C1 (single isomer, unassigned); 2.6 nM
Cn1cnnc1[C@]1(c2cccc(N3Cc4c(cc(CNC5(C)CCC5)cc4C(F)(F)F)C3=O)c2)C[C@](C)(F)C1; 2.6 nM
Cn1cnnc1[C@]1(c2cc(NC3CCC3)nc(N3Cc4c(cc(CNC5(C)CCC5)cc4C(F)(F)F)C3=O)c2)C[C@@H](C)C1; 0.24 nM

Q: Hello, I am looking for reported Kd with Human Cbl-b (residues 40-426) (Homo sapiens (Human), UniProt Q13191) for CO[C@H]1C[C@](c2cccc(N3Cc4c(cc(CN[C@@H](C)C5CCC5)cc4C(F)(F)F)C3=O)c2)(c2nncn2C)C1 . Could you help?
A: 0.35 nM
